Where these numbers come from: ChEMBL document CHEMBL1201862

Quick reference: GI50 of the listed items.
system: SF-539; assay: NCI tumour cell line growth inhibition, 48 h
Calls of active or inactive are those of the source. Rule as the data show it: active = GI50 up to about 1.1 µM and inactive = higher.

>  <Compound>
O=c1[nH]nc(Cc2ccccc2)n1/N=C\c1ccccc1

>  <GI50>
> 100 µM (inactive)

$$$$
>  <Compound>
c1ccc2nc3c(nc2c1)sc1ccccc13

>  <GI50>
16.4 µM (inactive)

$$$$
>  <Compound>
C[Si](C)(C)/C(I)=C/CO

>  <GI50>
20 µM (inactive)

$$$$
>  <Compound>
Nc1nc(N)c2nn(-c3ccc(C(=O)O)cc3)nc2n1

>  <GI50>
> 100 µM (inactive)

$$$$
>  <Compound>
Cc1ccc(C(=O)Cc2nc3c([nH]c2=O)c(C)nn3-c2ccccc2)c(C)c1

>  <GI50>
> 10 µM (inactive)

$$$$
>  <Compound>
Cc1ccccc1N1C(N)=C(C#N)C(C#N)(C#N)C1c1ccccc1 (stereo not drawn)

>  <GI50>
21.2 µM (inactive)

$$$$
>  <Compound>
C=CC1(c2ccccc2Cl)N/C(=C/OCC)CO1 (stereo not drawn)

>  <GI50>
> 100 µM (inactive)

$$$$
>  <Compound>
N#CC(C(=O)/C(=N/N)C(C#N)c1ccc(Cl)cc1)c1ccc(Cl)cc1 (stereo not drawn)

>  <GI50>
> 100 µM (inactive)

$$$$
